PROTOCOL: small-molecule binders of probe aNOTCH2, primary screen, biochemical, small-molecule microarray, 635/667 nm fluorescence (AID 1121);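 also: score merges feature fluorescence read at 667 nm with its signal to noise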
SETTINGS: higher = more signal
Examples of compounds with documented composite z-score follow.

{"COMPOUND": "Cc1ccc(S(=O)(=O)OC[C@H]2CN3[C@H](c4ccc(Br)cc4)[C@@H](C)CC[C@H]3C(=O)O2)cc1", "composite z-score": -0.147}
{"COMPOUND": "COc1ccc(COC(=O)NN=C2C[C@@H](O)[C@@H](O)[C@@H]3[C@@H]4C(=O)N(Cc5ccccc5)C(=O)[C@@H]4CC[C@H]23)cc1", "composite z-score": -0.348}
{"COMPOUND": "CC1O[C@H]2C3=C(C(=O)[C@@H]4O[C@@H]4[C@H]3O)[C@@H]1C1[C@@H](C)OC=C3[C@H](O)C4O[C@@H]4C(=NOCc4ccccc4)[C@]312 (some centres not stated)", "composite z-score": -0.14}
{"COMPOUND": "CON=C(C)CCC(=O)OC[C@H]1O[C@H](c2ccccc2)C=C[C@@H]1Oc1ccc(OC)cc1", "composite z-score": -0.146}
{"COMPOUND": "CC(C)CON=C1C[C@@H](O)[C@@H](O)[C@@H]2[C@@H]3C(=O)N(c4cccc(Oc5ccccc5)c4)C(=O)[C@@H]3CC[C@@H]12", "composite z-score": -0.121}
{"COMPOUND": "COC(=O)[C@@H]1CC[C@H](C)[C@@H](c2ccc(C)cc2)N1C(=O)c1ccc(C=NO[C@H](C)c2cn([C@@H]3COC[C@H]3O)nn2)cc1", "composite z-score": -0.117}
{"COMPOUND": "COC(=O)CC=C[C@@H](C)[C@@H](C=NO[C@@H](C)c1cn([C@H](CO)Cc2ccccc2)nn1)OC", "composite z-score": -0.103}

* * *

TARGET_OR_TEST_SYSTEM: Luciferin 4-monooxygenase (Photinus pyralis) (UniProt P08659)
Sequence (P08659 whole entry, looked up): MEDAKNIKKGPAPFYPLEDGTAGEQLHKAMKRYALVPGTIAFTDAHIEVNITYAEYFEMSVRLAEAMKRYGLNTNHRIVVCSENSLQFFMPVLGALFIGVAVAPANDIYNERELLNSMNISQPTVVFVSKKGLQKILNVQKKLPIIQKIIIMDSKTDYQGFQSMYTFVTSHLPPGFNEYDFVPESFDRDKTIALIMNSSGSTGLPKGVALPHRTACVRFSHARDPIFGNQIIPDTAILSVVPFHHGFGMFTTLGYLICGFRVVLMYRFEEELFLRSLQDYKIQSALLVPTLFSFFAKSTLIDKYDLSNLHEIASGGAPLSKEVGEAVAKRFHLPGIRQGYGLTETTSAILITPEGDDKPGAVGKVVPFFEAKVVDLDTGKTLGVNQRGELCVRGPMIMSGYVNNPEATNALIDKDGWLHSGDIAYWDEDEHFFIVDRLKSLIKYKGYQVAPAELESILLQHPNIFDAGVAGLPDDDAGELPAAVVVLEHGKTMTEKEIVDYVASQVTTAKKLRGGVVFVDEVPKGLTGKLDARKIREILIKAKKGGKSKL
PROTOCOL: firefly luciferase enzyme inhibitors, primary screen, biochemical, luminescence, purified enzyme, 2006 set (AID 1141);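 also: cell-free assay with purified firefly luciferase at 100 ng per well in PBS; test concentration not given here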
SETTINGS: SteadyGlo luminescence, 30 min, higher = more signal, called active from +8 up or from −8 down
The source made the active and inactive calls.
Examples of molecules with documented z-score follow.

{"COMPOUND_STRUCTURE_STRING": "CC(C)CON=C1C[C@@H](O)[C@@H](O)[C@@H]2[C@@H]3C(=O)N(c4cccc(Oc5ccccc5)c4)C(=O)[C@@H]3CC[C@@H]12", "z-score": "-0.172 (inactive)"}
{"COMPOUND_STRUCTURE_STRING": "CC(C)=CCCC(C)=CCON=C1C[C@@H](O)[C@@H](O)[C@@H]2[C@@H]3C(=O)N(C[C@@H]4CCCO4)C(=O)[C@@H]3CC[C@H]12", "z-score": "0.217 (inactive)"}
{"COMPOUND_STRUCTURE_STRING": "C#CCCCON=C1C[C@@H](O)[C@@H](O)[C@@H]2[C@@H]3C(=O)N(c4ccc(F)cc4F)C(=O)[C@@H]3CC[C@@H]12", "z-score": "1.04 (inactive)"}

* * *

Examples of compounds with documented composite z-score follow.
PROTOCOL: binders of probe aFGF10 on microarray, primary screen, stem cell growth factor project, biochemical, small-molecule microarray, fluorescence 635/667 (AID 1071);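 also: score merges 667 nm spot intensity and signal to noise from triplicate slides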
SETTINGS: higher = more signal

{"COMPOUND": "CCOC(=O)[C@H](Cc1ccccc1)NC(=O)CCC1CC(OC(=O)NCc2cccc3ccccc23)CC2(CCCC(COC(=O)NCc3ccccc3)O2)O1 (some centres not stated)", "composite z-score": 0.159}
{"COMPOUND": "CCc1cc2c(nc1CC)CCN(CCC(C)=NO[C@@H](C)c1cn([C@H](CO)Cc3ccccc3)nn1)C2", "composite z-score": 0.112}
{"COMPOUND": "CC(C)CON=C1C[C@@H](O)[C@@H](O)[C@@H]2[C@@H]3C(=O)N(C4CCCCC4)C(=O)[C@@H]3CC[C@@H]12", "composite z-score": 0.0675}
{"COMPOUND": "CCOC(=O)[C@H](CC(C)C)NC(=O)CCC1CC(OC(=O)NCCc2ccc(F)cc2)CC2(CCCC(COC(=O)NCCOc3ccccc3)O2)O1 (some centres not stated)", "composite z-score": 0.704}
{"COMPOUND": "CCCNC(=O)OC[C@H]1O[C@H](CCON=C(C)C)C=C[C@@H]1Oc1ccc(OC)cc1", "composite z-score": 0.332}
{"COMPOUND": "COc1cccc([C@H]2Oc3ccc(OC)cc3C(=NOC(C)CN3CCCCc4nc(C)c(C)cc43)[C@@H]2O)c1 (some centres not stated)", "composite z-score": 0.561}
{"COMPOUND": "CCOC(=O)[C@H](CC(C)C)NC(=O)CCC1CC(OC(=O)NCc2cccc3ccccc23)CC2(CCCC(COC(=O)NCCc3ccc(Cl)cc3)O2)O1 (some centres not stated)", "composite z-score": 0.293}

* * *

TARGET_OR_TEST_SYSTEM: Homeobox protein Hox-A13 (Mus musculus)
PROTOCOL: inhibitors of HoxA13-DNA binding, primary screen, biochemical, fluorescence polarization, labeled oligonucleotide (AID 1185)
SETTINGS: 15 min, higher = more signal, called active from +8 up or from −8 down
Examples of compounds with documented z-score follow.

{"COMPOUND": "COc1ccc(O[C@@H]2[C@H](O)CO[C@H]2C=Cc2ccccc2)cc1", "TARGET_OR_TEST_SYSTEM": "Homeobox protein Hox-A13 (Mus musculus)", "z-score": -1.16}
{"COMPOUND": "CCOC(=O)C1=NO[C@]2(C=C(Br)C3(OCCCO3)[C@H]3O[C@H]32)C1", "TARGET_OR_TEST_SYSTEM": "Homeobox protein Hox-A13 (Mus musculus)", "z-score": 0.136}
{"COMPOUND": "CCOC(=O)[C@H](CC(C)C)NC(=O)CCC1CC(OC(=O)NCc2cccc3ccccc23)CC2(CCCC(COC(=O)NCC3CCCCC3)O2)O1 (stereo partly drawn)", "TARGET_OR_TEST_SYSTEM": "Homeobox protein Hox-A13 (Mus musculus)", "z-score": -4.22}
{"COMPOUND": "CO[C@H]1COC(=O)CC=C[C@@H](C)[C@H](NS(=O)(=O)c2ccc(C)cc2)COC(=O)CCC[C@@H]1C", "TARGET_OR_TEST_SYSTEM": "Homeobox protein Hox-A13 (Mus musculus)", "z-score": -0.499}
{"COMPOUND": "CCC1=NOC(CCC2CC(OC(=O)NCc3cccc4c3OCO4)CC3(CCCC(COC(=O)NCCc4ccccc4OC)O3)O2)C1 (stereo not drawn)", "TARGET_OR_TEST_SYSTEM": "Homeobox protein Hox-A13 (Mus musculus)", "z-score": -6.1}
{"COMPOUND": "O=C1OCCC=C1C(O)CCc1ccccc1 (stereo not drawn)", "TARGET_OR_TEST_SYSTEM": "Homeobox protein Hox-A13 (Mus musculus)", "z-score": -0.295}
{"COMPOUND": "C=CC[C@@H]1C=C[C@H](ON=C(C)CCN2CCc3nc(-c4ccccc4)c(-c4ccccc4)cc3C2)[C@@H](CO)O1", "TARGET_OR_TEST_SYSTEM": "Homeobox protein Hox-A13 (Mus musculus)", "z-score": -5.72}
{"COMPOUND": "CC(C)=CCCC(C)=CCON=C1C[C@@H](O)[C@@H](O)[C@@H]2[C@@H]3C(=O)N(C(C)(C)C)C(=O)[C@@H]3CC[C@@H]12", "TARGET_OR_TEST_SYSTEM": "Homeobox protein Hox-A13 (Mus musculus)", "z-score": -1.09}

* * *

Examples of compounds with documented z-score follow.
PROTOCOL: FRG1 promoter luciferase signal modulators, primary screen, FRG1 inhibition for FSHD, cell-based, C2C12 myotubes, firefly/Renilla luciferase, luminescence (AID 1084)
SETTINGS: higher = more signal, called active from +8 up or from −8 down

{"COMPOUND": "COC(=O)NCC=Cc1nc(CCCO)co1", "z-score": -0.435}
{"COMPOUND": "CO[C@H]1COC(=O)CC=C[C@H](C)[C@@H](OC)COC(=O)[C@@H](C)COC(=O)CC=C[C@@H]1C", "z-score": -0.862}
{"COMPOUND": "CCOC(=O)[C@H](CC(C)C)NC(=O)CCC1CC(OC(=O)NCc2cccc3ccccc23)CC2(CCCC(COC(=O)NCc3ccncc3)O2)O1 (some centres not stated)", "z-score": -0.689}
{"COMPOUND": "CCCNC(=O)OC[C@H]1O[C@H](CCON=C(C)C)C=C[C@@H]1Oc1ccc(OC)cc1", "z-score": 0.534}
{"COMPOUND": "O=C1C=C[C@@H](O)[C@@H]2[C@@H]3C(=O)N(c4ccc(F)cc4F)C(=O)[C@@H]3CC[C@@H]12", "z-score": -0.996}
{"COMPOUND": "COC(=O)CC=C[C@@H](C)[C@@H](C=NOCC[C@@H]1C=C[C@H](OC(C)=O)[C@@H](COC(C)=O)O1)OC", "z-score": 0.799}
{"COMPOUND": "CC(C)CON=C1C[C@@H](O)[C@@H](O)[C@@H]2[C@@H]3C(=O)N(C(C)(C)C)C(=O)[C@@H]3CC[C@H]12", "z-score": -0.392}
{"COMPOUND": "CC(C)[C@@H](OCc1ccccc1)[C@H](C)C=NOC[C@@H](O)COCc1ccco1", "z-score": 0.887}
{"COMPOUND": "CCOC(=O)[C@H](Cc1ccccc1)NC(=O)CCC1CC(OC(=O)NCc2cccc3ccccc23)CC2(CCCC(COC(=O)NCCC(C)C)O2)O1 (some centres not stated)", "z-score": 1.41}
{"COMPOUND": "CCOC(=O)[C@H](Cc1ccccc1)NC(=O)CCC1CC(OC(=O)NCCc2ccc(F)cc2)CC2(CCCC(COC(=O)NCC3CCCCC3)O2)O1 (some centres not stated)", "z-score": -0.692}
{"COMPOUND": "CC=CC1=C(CO)C(=O)[C@@H]2O[C@@H]2C1=O", "z-score": -0.078}
{"COMPOUND": "COC(=O)[C@H]1O[C@@H](c2c(OC)c(OC)c(C)c(OC)c2OC)[C@H](C)[C@@H](O)[C@H]1C", "z-score": -0.204}
{"COMPOUND": "Cc1cc2c(c(=O)o1)[C@@H](O)[C@H]1O[C@H]1C2=O", "z-score": 0.446}
{"COMPOUND": "CC(CCN1CCc2nc(-c3ccccc3)c(-c3ccccc3)cc2C1)=NOC[C@@H](O)[C@H]1O[C@@H]2OC(C)(C)O[C@@H]2[C@H]1O", "z-score": 1.54}
{"COMPOUND": "COc1cccc([C@@H]2Oc3ccc(OC)cc3C(=O)[C@H]2O)c1", "z-score": 7.25}
{"COMPOUND": "CCCCC#C[C@@H]1C=C[C@H](Oc2ccc(C(=O)OC)cc2)[C@@H](COC(=O)OCC)O1", "z-score": -2.03}
{"COMPOUND": "CO[C@H]1COC(=O)[C@@H](Cc2ccccc2)NC(=O)[C@@H](C)COC(=O)CCC[C@@H]1C", "z-score": -0.224}
{"COMPOUND": "O=c1n(-c2ccccc2)c(=O)n2n1CC[C@@H]1C(=NOCc3ccccc3)[C@H]3O[C@H]3[C@@H](O)[C@@H]12", "z-score": -0.354}
{"COMPOUND": "CCOC(=O)[C@H](CC(C)C)NC(=O)CCC1CC(OC(=O)NCc2cccc3ccccc23)CC2(CCCC(COC(=O)NCC3CCCCC3)O2)O1 (some centres not stated)", "z-score": 0.791}
{"COMPOUND": "C=Cc1ccc([C@H]2N[C@H](C(=O)O)CC[C@@H]2C)cc1", "z-score": 1.35}
{"COMPOUND": "CO[C@@H]1C=CCC(=O)N2CCC[C@H]2C(=O)OC[C@@H](C)C(=O)OC[C@H]1C", "z-score": -1.15}
{"COMPOUND": "CC(CCN1CCCCc2nc(C)c(C)cc21)=NOC[C@@H](O)COCc1ccco1", "z-score": -0.0255}
{"COMPOUND": "COc1cc(O)c(C(=O)C=Cc2ccc3c(c2)OCO3)c(OC)c1", "z-score": -0.984}
{"COMPOUND": "CO[C@@H]1COC(=O)[C@H](CCSC)NC(=O)CC=C[C@@H](C)COC(=O)[C@H](C)NC(=O)CC=C[C@H]1C", "z-score": -0.0159}
{"COMPOUND": "COc1ccc(COC(=O)NN=C2C[C@@H](O)[C@@H](O)[C@@H]3[C@@H]4C(=O)N(C5CCCCC5)C(=O)[C@@H]4CC[C@H]23)cc1", "z-score": 0.248}
{"COMPOUND": "COC(=O)CC=C[C@@H](C)[C@@H](C=NOC[C@H]1O[C@H](c2ccccc2)C=C[C@@H]1Oc1ccc(OC)cc1)OC", "z-score": 0.532}
{"COMPOUND": "CO[C@H]1COC(=O)CC=C[C@@H](C)[C@H](OC)COC(=O)[C@@H]2CCCN2C(=O)CC=C[C@@H]1C", "z-score": -0.273}
{"COMPOUND": "C[C@@H](c1ccccc1)N1C(=O)[C@H]2[C@H]3[C@H](O)[C@H](O)CC(=O)[C@H]3CC[C@H]2C1=O", "z-score": -0.12}
{"COMPOUND": "CCOC(=O)[C@H](CC(C)C)NC(=O)CCC1CC(OC(=O)NCc2cccc3ccccc23)CC2(CCCC(COC(=O)NCCOc3ccccc3)O2)O1 (some centres not stated)", "z-score": 1.67}
{"COMPOUND": "C[C@@H](ON=C1[C@H]2CCn3c(=O)n(-c4ccccc4)c(=O)n3[C@H]2[C@H](O)[C@@H]2O[C@H]12)c1cn([C@@H]2COC[C@H]2O)nn1", "z-score": 1.15}
{"COMPOUND": "COC(=O)[C@H](C)NC(=O)CCC1CC(OC(=O)NCc2ccc3c(c2)OCO3)CC2(CCCC(COC(=O)NCC(c3ccccc3)c3ccccc3)O2)O1 (some centres not stated)", "z-score": 2.96}
{"COMPOUND": "CC(C)=CCCC(C)=CCON=C1C[C@@H](O)[C@@H](O)[C@@H]2[C@@H]3C(=O)N(Cc4ccccc4)C(=O)[C@@H]3CC[C@H]12", "z-score": 0.134}
